# ASSAY SYSTEM: SERCA2a (cardiac sarcoplasmic reticulum Ca2+-ATPase) (Sus scrofa)
# Construct: native SERCA2a in enriched pig cardiac SR microsomes
# Sequence (P11607 1-997 isoform P11607-2): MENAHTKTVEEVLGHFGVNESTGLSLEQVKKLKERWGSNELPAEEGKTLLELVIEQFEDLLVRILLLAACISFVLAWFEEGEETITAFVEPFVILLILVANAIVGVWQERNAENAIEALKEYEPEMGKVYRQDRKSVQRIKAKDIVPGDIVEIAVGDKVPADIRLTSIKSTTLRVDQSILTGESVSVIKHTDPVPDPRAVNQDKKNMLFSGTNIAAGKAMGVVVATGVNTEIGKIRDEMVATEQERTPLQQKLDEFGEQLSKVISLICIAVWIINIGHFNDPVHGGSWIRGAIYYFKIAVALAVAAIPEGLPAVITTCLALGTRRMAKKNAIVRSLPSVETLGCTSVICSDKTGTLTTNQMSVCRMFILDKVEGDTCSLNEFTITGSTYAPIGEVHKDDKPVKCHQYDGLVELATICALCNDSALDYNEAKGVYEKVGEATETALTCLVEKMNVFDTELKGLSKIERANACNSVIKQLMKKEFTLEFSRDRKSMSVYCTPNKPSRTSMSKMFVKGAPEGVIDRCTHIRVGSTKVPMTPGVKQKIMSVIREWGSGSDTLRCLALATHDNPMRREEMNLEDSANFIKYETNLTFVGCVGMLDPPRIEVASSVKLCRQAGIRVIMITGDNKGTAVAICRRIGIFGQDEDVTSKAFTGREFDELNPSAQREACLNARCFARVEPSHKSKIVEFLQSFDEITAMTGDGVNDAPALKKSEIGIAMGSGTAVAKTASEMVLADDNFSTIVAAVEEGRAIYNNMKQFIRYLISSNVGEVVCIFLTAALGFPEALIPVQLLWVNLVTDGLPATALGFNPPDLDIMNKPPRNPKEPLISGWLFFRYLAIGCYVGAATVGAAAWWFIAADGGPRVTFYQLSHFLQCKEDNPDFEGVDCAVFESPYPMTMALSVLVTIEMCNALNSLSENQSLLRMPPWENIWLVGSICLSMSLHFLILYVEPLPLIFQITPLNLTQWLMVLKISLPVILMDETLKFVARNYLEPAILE
# ASSAY DETAILS: NADH-coupled ATPase assay, ten-point concentration-response (activation)
ATTRIBUTE MEASURED: EC50 (nM)

COMPOUND | ASSAY SYSTEM | VALUE OBSERVED
Cc1ccc2cccc(NC(=O)c3ccc(OC(C)C)cc3)c2n1 [CDN1163] | SERCA2a (cardiac sarcoplasmic reticulum Ca2+-ATPase) (Sus scrofa) | 2300

###

# ASSAY SYSTEM: Na+/K+-ATPase NKA-α1 (Sus scrofa)
# ASSAY DETAILS: ATPase activity assay
pIC50: −log10 of the molar value.
ATTRIBUTE MEASURED: pIC50

COMPOUND | VALUE OBSERVED
C[C@]12CC/C(=N\OCCN)C[C@@H]1C(=O)C[C@@H]1[C@@H]2CC[C@]2(C)C(=O)CC[C@@H]12 [istaroxime] | 6.33
